Reported MIC is given for each of the following compounds.
system: Klebsiella pneumoniae KAE; assay: MIC, standard agar-dilution assay; type: cell-based

CNC(CC(C)C)C(=O)NC1C(=O)NC(CC(N)=O)C(=O)NC2C(=O)NC3C(=O)NC(C(=O)NC(C(=O)O)c4cc(O)cc(O)c4-c4cc3ccc4O)C(OC3CC(C)(N)C(O)C(C)O3)c3ccc(c(Cl)c3)Oc3cc2cc(c3OC2OC(CO)C(O)C(O)C2OC2CC(C)(NCc3ccc(Cl)cc3)C(O)C(C)O2)Oc2ccc(cc2Cl)C1O (centres unmarked)	> 128 mg/L

**Q:** Checklist item: MIC tested on Klebsiella pneumoniae KAE, entry CNC(CC(C)C)C(=O)NC1C(=O)NC(CC(N)=O)C(=O)NC2C(=O)NC3C(=O)NC(C(=O)NC(C(=O)O)c4cc(O)cc(O)c4-c4cc3ccc4O)C(OC3CC(C)(N)C(O)C(C)O3)c3ccc(c(Cl)c3)Oc3cc2cc(c3OC2OC(CO)C(O)C(O)C2OC2CC(C)(NCc3ccc(Br)cc3)C(O)C(C)O2)Oc2ccc(cc2Cl)C1O (centres unmarked) , value?
**A:** > 128 mg/L

----------
Reported MIC is given for each of the following molecules.
system: Klebsiella pneumoniae X68; experiment: MIC, standard agar-dilution assay; assay type: cell-based

CNC(CC(C)C)C(=O)NC1C(=O)NC(CC(N)=O)C(=O)NC2C(=O)NC3C(=O)NC(C(=O)NC(C(=O)O)c4cc(O)cc(O)c4-c4cc3ccc4O)C(OC3CC(C)(N)C(O)C(C)O3)c3ccc(c(Cl)c3)Oc3cc2cc(c3OC2OC(CO)C(O)C(O)C2OC2CC(C)(NCc3ccc(Cl)cc3)C(O)C(C)O2)Oc2ccc(cc2Cl)C1O (centres unmarked) [Compound 60]	> 128 µg/mL

Next molecule, MIC to be filled in.
**Q:** Checklist item: MIC tested on Klebsiella pneumoniae X68, entry CN[C@H](CC(C)C)C(=O)N[C@H]1C(=O)N[C@@H](CC(N)=O)C(=O)N[C@H]2C(=O)N[C@H]3C(=O)N[C@H](C(=O)N[C@H](C(=O)O)c4cc(O)cc(O)c4-c4cc3ccc4O)[C@H](O[C@H]3C[C@](C)(N)[C@@H](O)[C@H](C)O3)c3ccc(c(Cl)c3)Oc3cc2cc(c3O[C@@H]2O[C@H](CO)[C@@H](O)[C@H](O)[C@H]2O[C@H]2C[C@](C)(NCCc3ccccc3)[C@@H](O)[C@H](C)O2)Oc2ccc(cc2Cl)[C@H]1O [Compound 43] , value?
**A:** > 128 µg/mL

----------
tested on: Streptococcus pyogenes C203; assay: MIC, standard agar-dilution assay; format: cell-based
Reported MIC is given for each of the following molecules.

CNC(CC(C)C)C(=O)NC1C(=O)NC(CC(N)=O)C(=O)NC2C(=O)NC3C(=O)NC(C(=O)NC(C(=O)O)c4cc(O)cc(O)c4-c4cc3ccc4O)C(OC3CC(C)(NCc4ccccc4)C(O)C(C)O3)c3ccc(cc3)Oc3cc2cc(c3OC2OC(CO)C(O)C(O)C2O)Oc2ccc(cc2Cl)C1O (centres unmarked) [Compound 70]	2 µg/mL

Next molecule, MIC to be filled in.
**Q:** Entry CNC(CC(C)C)C(=O)NC1C(=O)NC(CC(N)=O)C(=O)NC2C(=O)NC3C(=O)NC(C(=O)NC(C(=O)O)c4cc(O)cc(O)c4-c4cc3ccc4O)C(OC3CC(C)(N)C(O)C(C)O3)c3ccc(c(Cl)c3)Oc3cc2cc(c3OC2OC(CO)C(O)C(O)C2OC2CC(C)(NCc3cccc(Cl)c3)C(O)C(C)O2)Oc2ccc(cc2Cl)C1O (centres unmarked) [Compound 64] has what MIC?
**A:** .06 µg/mL

----------
test system: Streptococcus pyogenes C203; assay: MIC, standard agar-dilution assay; format: cell-based
quantity kind: MIC (µg/mL)
API: value field is a number in µg/mL; no unit string.

**Q:** Entry CN[C@H](CC(C)C)C(=O)N[C@H]1C(=O)N[C@@H](CC(N)=O)C(=O)N[C@H]2C(=O)N[C@H]3C(=O)N[C@H](C(=O)N[C@H](C(=O)O)c4cc(O)cc(O)c4-c4cc3ccc4O)[C@H](O[C@H]3C[C@](C)(NCc4ccc(Cl)cc4)[C@@H](O)[C@H](C)O3)c3ccc(cc3)Oc3cc2cc(c3O[C@@H]2O[C@H](CO)[C@@H](O)[C@H](O)[C@H]2O[C@H]2C[C@](C)(NCc3ccc(Cl)cc3)[C@@H](O)[C@H](C)O2)Oc2ccc(cc2Cl)[C@H]1O [Compound 23] has what MIC?
**A:** 2

**Q:** Entry CCCCCNC1(C)CC(OC2c3ccc(cc3)Oc3cc4cc(c3OC3OC(CO)C(O)C(O)C3O)Oc3ccc(cc3Cl)C(O)C(NC(=O)C(CC(C)C)NC)C(=O)NC(CC(N)=O)C(=O)NC4C(=O)NC3C(=O)NC2C(=O)NC(C(=O)O)c2cc(O)cc(O)c2-c2cc3ccc2O)OC(C)C1O (centres unmarked) [Compound 71] has what MIC?
**A:** 2

----------
test system: Staphylococcus aureus V41; experiment: MIC, standard agar-dilution assay; assay type: cell-based
quantity kind: MIC

Known MIC results, listed for orientation:
CNC(CC(C)C)C(=O)NC1C(=O)NC(CC(N)=O)C(=O)NC2C(=O)NC3C(=O)NC(C(=O)NC(C(=O)O)c4cc(O)cc(O)c4-c4cc3ccc4O)C(OC3CC(C)(N)C(O)C(C)O3)c3ccc(c(Cl)c3)Oc3cc2cc(c3OC2OC(CO)C(O)C(O)C2OC2CC(C)(NCC(c3ccccc3)c3ccccc3)C(O)C(C)O2)Oc2ccc(cc2Cl)C1O (stereo not drawn)	.5 µg/mL
CN[C@H](CC(C)C)C(=O)N[C@H]1C(=O)N[C@@H](CC(N)=O)C(=O)N[C@H]2C(=O)N[C@H]3C(=O)N[C@H](C(=O)N[C@H](C(=O)O)c4cc(O)cc(O)c4-c4cc3ccc4O)[C@H](O[C@H]3C[C@](C)(N)[C@@H](O)[C@H](C)O3)c3ccc(cc3)Oc3cc2cc(c3O[C@@H]2O[C@H](CO)[C@@H](O)[C@H](O)[C@H]2O[C@H]2C[C@](C)(NCCc3ccccc3)[C@@H](O)[C@H](C)O2)Oc2ccc(cc2Cl)[C@H]1O	.5 µg/mL

**Q:** Entry CNC(CC(C)C)C(=O)NC1C(=O)NC(CC(N)=O)C(=O)NC2C(=O)NC3C(=O)NC(C(=O)NC(C(=O)O)c4cc(O)cc(O)c4-c4cc3ccc4O)C(OC3CC(C)(N)C(O)C(C)O3)c3ccc(c(Cl)c3)Oc3cc2cc(c3OC2OC(CO)C(O)C(O)C2OC2CC(C)(NCc3ccccc3)C(O)C(C)O2)Oc2ccc(cc2Cl)C1O (stereo not drawn) has what MIC?
**A:** .5 µg/mL

----------
tested on: Staphylococcus epidermidis EPI270; test: MIC, standard agar-dilution assay; format: cell-based
quantity kind: MIC (µg/mL)
API: value field is a number in µg/mL; no unit string.

Known MIC results, listed for orientation:
CCCCCCC(=O)NC1(C)CC(OC2c3ccc(c(Cl)c3)Oc3cc4cc(c3OC3OC(CO)C(O)C(O)C3OC3CC(C)(N)C(O)C(C)O3)Oc3ccc(cc3Cl)C(O)C(NC(=O)C(CC(C)C)NC)C(=O)NC(CC(N)=O)C(=O)NC4C(=O)NC3C(=O)NC2C(=O)NC(C(=O)O)c2cc(O)cc(O)c2-c2cc3ccc2O)OC(C)C1O (stereo not drawn) [Compound 69]	8
CNC(CC(C)C)C(=O)NC1C(=O)NC(CC(N)=O)C(=O)NC2C(=O)NC3C(=O)NC(C(=O)NC(C(=O)O)c4cc(O)cc(O)c4-c4cc3ccc4O)C(OC3CC(C)(N)C(O)C(C)O3)c3ccc(c(Cl)c3)Oc3cc2cc(c3OC2OC(CO)C(O)C(O)C2OC2CC(C)(NCc3ccc(Br)cc3)C(O)C(C)O2)Oc2ccc(cc2Cl)C1O (stereo not drawn) [Compound 58]	2
CCCCCN[C@@]1(C)C[C@H](O[C@H]2[C@H](Oc3c4cc5cc3Oc3ccc(cc3Cl)[C@@H](O[C@H]3C[C@](C)(N)[C@@H](O)[C@H](C)O3)[C@@H]3NC(=O)[C@H](NC(=O)[C@@H]5NC(=O)[C@H](CC(N)=O)NC(=O)[C@H](NC(=O)[C@@H](CC(C)C)NC)[C@H](O)c5ccc(c(Cl)c5)O4)c4ccc(O)c(c4)-c4c(O)cc(O)cc4[C@@H](C(=O)O)NC3=O)O[C@H](CO)[C@@H](O)[C@@H]2O)O[C@@H](C)[C@@H]1O [Compound 34]	2
CNC(CC(C)C)C(=O)NC1C(=O)NC(CC(N)=O)C(=O)NC2C(=O)NC3C(=O)NC(C(=O)NC(C(=O)O)c4cc(O)cc(O)c4-c4cc3ccc4O)C(OC3CC(C)(N)C(O)C(C)O3)c3ccc(c(Cl)c3)Oc3cc2cc(c3OC2OC(CO)C(O)C(O)C2OC2CC(C)(NCc3ccccc3)C(O)C(C)O2)Oc2ccc(cc2Cl)C1O (stereo not drawn) [Compound 51]	1

**Q:** Checklist item: MIC tested on Staphylococcus epidermidis EPI270, entry CCCCCCCCN[C@@]1(C)C[C@H](O[C@H]2[C@H](Oc3c4cc5cc3Oc3ccc(cc3Cl)[C@@H](O)[C@@H](NC(=O)[C@@H](CC(C)C)NC)C(=O)N[C@@H](CC(N)=O)C(=O)N[C@H]5C(=O)N[C@H]3C(=O)N[C@H](C(=O)N[C@H](C(=O)O)c5cc(O)cc(O)c5-c5cc3ccc5O)[C@H](O[C@H]3C[C@](C)(N)[C@@H](O)[C@H](C)O3)c3ccc(cc3)O4)O[C@H](CO)[C@@H](O)[C@@H]2O)O[C@@H](C)[C@@H]1O [Compound 1] , value?
**A:** 1
